Below: a set of entries, each annotated with reported pKi.
Target: Cathepsin D (Homo sapiens, UniProt P07339)
Sequence (P07339 65-412, species assumed): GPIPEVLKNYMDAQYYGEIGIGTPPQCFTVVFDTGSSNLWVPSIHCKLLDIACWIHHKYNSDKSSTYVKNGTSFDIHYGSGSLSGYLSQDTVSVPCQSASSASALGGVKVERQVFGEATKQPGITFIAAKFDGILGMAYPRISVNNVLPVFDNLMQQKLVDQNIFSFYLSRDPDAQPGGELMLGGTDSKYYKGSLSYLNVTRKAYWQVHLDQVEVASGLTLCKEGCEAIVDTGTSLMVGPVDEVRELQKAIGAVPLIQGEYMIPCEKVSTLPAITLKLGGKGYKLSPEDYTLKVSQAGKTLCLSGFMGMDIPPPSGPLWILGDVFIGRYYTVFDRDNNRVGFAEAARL
Assay: Inhibition of cathepsin D activity (substrate peptide […], MALDI-TOF)
Format: biochemical
Settings: pH 4.1, 37 degrees C., substrate NH3-[…]-CO2, MALDI-TOF; read-out: Cath D Ki
pKi: −log10 of the molar value.

Sample answers from the record:
Cc1nc(CCC(=O)N[C@@H](CS(C)(=O)=O)C(=O)N[C@H](CC(C)C)[C@@H](O)C[C@@H](C)C(=O)N[C@@H](C(=O)NCC(C)C)C(C)C)c(C)o1 ... 6.00 to 7.00
CCC(C)SC[C@H](NC(=O)OCc1nc(C)cs1)C(=O)N[C@H](CC(C)C)[C@@H](O)C[C@@H](C)C(=O)N[C@@H](C(=O)NCC(C)C)C(C)C (some centres unmarked) ... > 7.00
CC[C@@H](Cn1nc(C)cc1C)C(=O)N[C@@H](C[S+](C)[O-])C(=O)N[C@@H](CC(C)C)[C@@H](O)C[C@@H](C)C(=O)N[C@@H](C(=O)NCC(C)C)C(C)C (some centres unmarked) ... 6.00 to 7.00
CC[C@@H](Cn1nc(C)cc1C)C(=O)N[C@@H](CSC)C(=O)N[C@H](CC(C)C)[C@@H](O)C[C@@H](C)C(=O)N[C@@H](C(=O)NCC(C)C)C(C)C ... > 7.00

Give pKi (Cathepsin D (Homo sapiens, UniProt P07339)) of the following compound: CCC(CC)SC[C@H](NC(=O)OCc1nc(C)cs1)C(=O)N[C@H](CC(C)C)[C@@H](O)C[C@@H](C)C(=O)N[C@@H](C(=O)NCC(C)C)C(C)C
> 7.00

====

Molecular target: UniProt:P07339
Test: Inhibition of cathepsin D activity (substrate peptide […], MALDI-TOF)
Type: biochemical
Details: pH 4.1, 37 degrees C., substrate NH3-ELDLAVEFWHDR-CO2, MALDI-TOF; read-out: Cath D Ki
reported-endpoint: Ki

Item under review: CSC[C@H](NC(=O)[C@@H](C)Cc1nc(C)cs1)C(=O)N[C@H](CC(C)C)[C@@H](O)C[C@@H](C)C(=O)N[C@@H](C(=O)NCC(C)C)C(C)C . Reported Ki?
< 100 nM

====

Target: Cathepsin D (Homo sapiens)
Assay: Inhibition of cathepsin D activity (substrate peptide […], MALDI-TOF)
Format: biochemical
Details: pH 4.1, 37 degrees C., substrate NH3-[…]-CO2, MALDI-TOF; read-out: Cath D Ki
Below: a set of entries, each annotated with reported Ki.

Sample answers from the record:
Cc1csc(COC(=O)N[C@@H](CS(C)(=O)=O)C(=O)N[C@H](CC(C)C)[C@@H](O)C[C@@H](C)C(=O)N[C@H](CC(C)C)C(=O)NC(C)C)n1 [Structure 46] ... 0.1 to 1 µM
Cc1nc(COC(=O)N[C@@H](CS(C)(=O)=O)C(=O)N[C@H](CC(C)C)[C@@H](O)C[C@@H](C)C(=O)N[C@@H](C(=O)NCC(C)C)C(C)C)cs1 [Structure 25] ... 0.1 to 1 µM

Lab note: next molecule to report on.
Item under review: CC[C@@H](Cc1nc(C)cs1)C(=O)N[C@@H](CS(C)(=O)=O)C(=O)N[C@H](CC(C)C)[C@@H](O)C[C@@H](C)C(=O)N[C@@H](C(=O)NCC(C)C)C(C)C [Structure 77] . Reported Ki?
< 0.1 µM

From: patent US7335632B2
